These measurements were taken from ChEMBL document CHEMBL1157845.

# Test system: Mycobacterium tuberculosis
# MEASUREMENT DESCRIPTION: Antimycobacterial activity against Mycobacterium tuberculosis H37Rv ATCC 27294 in GAST medium after 1 week by microplate alamar blue assay
# Assay type: functional
# CONDITIONS USED: H37Rv ATCC 27294, 168 h
QUANTITY: MIC (µM)
// return numeric value only (unit: µM, not printed)

> print(dat)
                         chemical.structure  measured.number
1  O=C(OCc1ccccc1)[C@@H]1COC(c2ccc(F)c([N+](=O)[O-])c2)=N1             0.95
2         O=C(OCc1ccccc1)c1coc(-c2cccnc2)n1              6.2
3  COc1ccc(C2=N[C@H](C(=O)OCc3ccccc3)[C@H](C)O2)cc1             37.8
4      Cc1ccc(-c2nc(C(=O)OCc3ccccc3)co2)cn1             10.2
5  O=C(OCc1ccccc1)[C@@H]1COC(c2ccc([N+](=O)[O-])c(F)c2)=N1             3.68

Summary: CCCCOc1ccc(C2=N[C@H](C(=O)OCc3ccccc3)CO2)cc1 , Mycobacterium tuberculosis, MIC = 5.11

Summary: CCCOc1ccc(C2=N[C@H](C(=O)OCc3ccccc3)CO2)cc1 , Mycobacterium tuberculosis, MIC = 22.4

Summary: C[C@@H]1OC(c2ccc(F)cc2[N+](=O)[O-])=N[C@@H]1C(=O)OCc1ccccc1 , Mycobacterium tuberculosis, MIC = 4.11

Summary: COC(=O)[C@@H]1COC(c2cccc(Cl)c2)=N1 , Mycobacterium tuberculosis, MIC = 68.7

---

# Test system: Mycobacterium tuberculosis
# MEASUREMENT DESCRIPTION: Antimycobacterial activity against Mycobacterium tuberculosis H37Rv ATCC 27294 in GAST medium after 1 week by microplate alamar blue assay
# Format: functional
# CONDITIONS USED: H37Rv ATCC 27294, 168 h
Strictly below 30 µM in MIC: condition met. Otherwise: condition not met.

COMPOUND	DISCRETE LABEL
CO[C@H]1/C=C/O[C@@]2(C)Oc3c(C)c(O)c4c(O)c(c(/C=N/N5CCN(C)CC5)c(O)c4c3C2=O)NC(=O)/C(C)=C\C=C\[C@H](C)[C@H](O)[C@@H](C)[C@@H](O)[C@@H](C)[C@H](OC(C)=O)[C@@H]1C [RIFAMPIN]	condition met

Req: Below 30 µM on MIC? Entry O=C(OCc1ccccc1)[C@@H]1COC(c2ccc([N+](=O)[O-])cc2OCc2ccccc2)=N1
Resp: condition met

Req: Below 30 µM on MIC? Entry O=C(OCc1ccccc1)c1coc(-c2ccc(OCc3ccccc3)c(F)c2)n1
Resp: condition met

---

# Test system: Mycobacterium tuberculosis
# MEASUREMENT DESCRIPTION: Antimycobacterial activity against Mycobacterium tuberculosis H37Rv ATCC 27294 in GAS medium after 1 week by microplate alamar blue assay
# Assay type: functional
# CONDITIONS USED: H37Rv ATCC 27294, 168 h
Each record here notes measured log10 of MIC.
Please keep in mind that the values are log10 of MIC expressed in µM.

These recorded examples may help you get a feel for the data.
> print(dat)
                         chemical.structure  measured.number
1  O=C(OCc1ccccc1)c1coc(-c2ccc(F)cc2[N+](=O)[O-])n1             0.38
2   COc1ccccc1C1=N[C@H](C(=O)OCc2ccccc2)CO1             1.57
3    CCOc1ccc(-c2nc(C(=O)OCc3ccccc3)co2)cc1             1.19
4  O=C(OCc1ccccc1)[C@@H]1COC(c2cccc(Cl)c2)=N1             1.06
5   CCCOc1ccc(-c2nc(C(=O)OCc3ccccc3)co2)cc1             0.54

Summary: N#Cc1cccc(-c2nc(C(=O)OCc3ccccc3)co2)c1 , Mycobacterium tuberculosis, log10 of MIC = 1.40

Summary: Nc1ccc(C2=N[C@H](C(=O)OCc3ccccc3)CO2)cc1 , Mycobacterium tuberculosis, log10 of MIC = 1.40

Summary: Cc1oc(-c2ccc(F)cc2[N+](=O)[O-])nc1C(=O)OCc1ccccc1 , Mycobacterium tuberculosis, log10 of MIC = 1.18

---

# System: Mycobacterium tuberculosis
# MEASUREMENT DESCRIPTION: Antimycobacterial activity against Mycobacterium tuberculosis H37Rv ATCC 27294 in GAS medium after 1 week by microplate alamar blue assay
# Type: functional
# CONDITIONS USED: H37Rv ATCC 27294, 168 h
Strictly below 10 µM in MIC: T. Otherwise: F.

Previously resolved entries follow.
> print(dat)
                          chemical.structure  discrete.label
 1  O=C(OCc1ccccc1)[C@@H]1COC(c2ccc([N+](=O)[O-])cc2F)=N1               F
 2     O=C(OCc1ccccc1)c1coc(-c2cccc(Cl)c2)n1               T
 3  O=C(OCc1ccccc1)c1coc(-c2ccccc2P(=O)(c2ccccc2)c2ccccc2)n1               F
 4       O=C(OCc1ccccc1)c1coc(-c2ccccc2Cl)n1               T
 5  O=C(OCc1ccccc1)[C@@H]1COC(c2cccnc2Oc2ccccc2)=N1               F
 6  C[C@@H]1OC(c2ccc(F)cc2[N+](=O)[O-])=N[C@@H]1C(=O)OCc1ccccc1               F
 7  O=C(OCc1ccccc1)[C@@H]1COC(c2ccc(F)c([N+](=O)[O-])c2)=N1               T
 8        COC(=O)[C@@H]1COC(c2cccc(Cl)c2)=N1               F
 9  O=C(OCc1ccccc1)[C@@H]1COC(c2cccc(Br)c2)=N1               F
10  O=C(OCc1ccccc1)[C@@H]1COC(c2ccc([N+](=O)[O-])c(F)c2)=N1               F

Req: Below 10 µM on MIC? Entry Cc1oc(-c2ccccc2O)nc1C(=O)O
Resp: F

Req: Below 10 µM on MIC? Entry COc1ccccc1-c1nc(C(=O)OCc2ccccc2)co1
Resp: T

Req: Below 10 µM on MIC? Entry C[C@@H]1OC(c2ccccc2)=N[C@@H]1C(=O)O
Resp: F

Req: Below 10 µM on MIC? Entry Cc1ccc(-c2nc(C(=O)OCc3ccccc3)co2)cc1
Resp: F

Req: Below 10 µM on MIC? Entry O=C(OCc1ccccc1)c1coc(-c2cccnc2Oc2ccccc2)n1
Resp: T

Req: Below 10 µM on MIC? Entry O=C(OCc1ccccc1)c1coc(-c2ccncc2)n1
Resp: T

---

# Tested on: Liver microsomes
# MEASUREMENT DESCRIPTION: Metabolic stability in Sprague-Dawley rat microsomes assessed as compound remaining after 15 mins by HPLC analysis
# Type: ADME, Microsome
# CONDITIONS USED: 0.25 h
QUANTITY: Stability
For clarity, give the value followed by its unit.

> print(dat)
                         chemical.structure  result
1  O=C(OCc1ccccc1)[C@@H]1COC(c2ccccc2OCc2ccccc2)=N1    8.4%

Summary: O=C(OCc1ccccc1)[C@@H]1COC(c2ccccc2)=N1 , Liver microsomes, Stability = 5.7%

Summary: O=C(OCc1ccccc1)c1coc(-c2ccccc2OCc2ccccc2)n1 , Liver microsomes, Stability = 13%

Summary: O=C(OCc1ccccc1)[C@@H]1COC(c2ccc(F)c([N+](=O)[O-])c2)=N1 , Liver microsomes, Stability = 13%

Summary: O=C(OCc1ccccc1)c1coc(-c2ccccc2)n1 , Liver microsomes, Stability = 15%

Summary: O=C(OCc1ccccc1)c1coc(-c2ccc(F)c([N+](=O)[O-])c2)n1 , Liver microsomes, Stability = 8.1%

Summary: COc1ccc(-c2nc(C(=O)OCc3ccccc3)co2)cc1 , Liver microsomes, Stability = 14%

Summary: O=C(OCc1ccccc1)c1coc(-c2ccccc2Cl)n1 , Liver microsomes, Stability = 8.8%

---

# System: Sporobolomyces salmonicolor
# MEASUREMENT DESCRIPTION: Antimicrobial activity against Sporobolomyces salmonicolor SBUG 549
# Assay type: functional, organism-based
Calls of active or inactive are those of the source. The rule behind the calls is not given here.
QUANTITY: Activity

> print(dat)
                         chemical.structure                       target  quantity    result
1  O=C(OCc1ccccc1)c1coc(-c2ccccc2OCc2ccccc2)n1  Sporobolomyces salmonicolor  Activity  inactive
2  O=C(OCc1ccccc1)[C@@H]1COC(c2ccc(F)c([N+](=O)[O-])c2)=N1  Sporobolomyces salmonicolor  Activity  inactive
3         O=C(OCc1ccccc1)c1coc(-c2ccccc2)n1  Sporobolomyces salmonicolor  Activity  inactive
